Where do the numbers come from? From PubChem BioAssay AID1159580.

# protocol: chemical genetic growth profiling, strain panel (AID 1159580);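 also: tested at 20 µM; growth read once vehicle control cultures reached saturation at 30 °C; 1 = growth at the plate median or of vehicle wells; lower values mean less growth of the strain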
# measurement parameters: S. cerevisiae deletion strains, growth OD, locus YML094W, strain GIM5, stronger effect = lower value
In all, about 5,500 compounds went through this assay and about 2,000 (36%) were called active. About 18% were inconclusive and are not listed. The list shows a part of the results.
parameter: normalized growth
Form field (numeric): enter value without unit.

# input # normalized growth lookup, item `Cc1ccc(OCc2nnc(SCC(=O)Nc3cccc4c3OCO4)n2-c2ccccc2)c2c1CCC2`
# output 0.98

# input Let us now turn to Cc1cc(CN2CC(C)OC(C)C2)cc(C)c1O (configuration not stated)
# output 0.996

# input Let us now turn to `O=C(Nc1nccs1)c1ccc([N+](=O)[O-])cc1`
# output 0.94

# input Let us now turn to `COc1ccc(OCC(N)=O)cc1`
# output 1.02

# input Let us now turn to `O=C(O)Cc1ccccc1I`
# output 1.01

# input Let us now turn to `O=C(CSc1nnc(NC(=O)c2cccc([N+](=O)[O-])c2)s1)Nc1ccc2c(c1)OCO2`
# output 0.948

# input Let us now turn to `O=C(Nc1nncs1)c1ccncc1`
# output 1.02

----------
So I've got a bunch of molecules here, and I need their normalized growth values.
# protocol: chemical genetic growth profiling, strain panel (AID 1159580);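 also: tested at 20 µM; growth read once vehicle control cultures reached saturation at 30 °C; 1 = growth at the plate median or of vehicle wells; lower values mean less growth of the strain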
# measurement parameters: S. cerevisiae deletion strains, growth OD, locus YGL078C, strain dbp3, stronger effect = lower value
Among all 5,500 compounds or so, about 2,000 (36%) were called active. Roughly 18% stayed inconclusive and do not appear here. The list shows a part of the results.
Form field (numeric): enter value without unit.

# input # normalized growth lookup, item CC[C@H](CCC(C)[C@H]1CCC2C3CCC4C[C@@H](O)CC[C@]4(C)C3CC[C@@]21C)C(C)C (some centres undefined)
# output 1.02

# input Let us now turn to CC(CCC(=O)O)[C@H]1CCC2C3CC[C@@H]4CCCC[C@]4(C)C3CC[C@@]21C (some centres undefined)
# output 0.989

# input Let us now turn to CCC(=O)c1ccc2c(c1)N(CC(C)N(C)C)c1ccccc1S2 (centres undefined)
# output 1.01

# input Let us now turn to CC(CCC(=O)O)[C@H]1CCC2C3C(C[C@H](O)[C@@]21C)[C@@]1(C)CC[C@@H](O)C[C@H]1C[C@H]3O (some centres undefined)
# output 1.01

# input Let us now turn to CC(CN1c2ccccc2Sc2cccnc21)N(C)C (centres undefined)
# output 0.988

# input Let us now turn to CC(CCC(=O)O)[C@H]1CCC2C3CC[C@@H]4C[C@H](O)CC[C@]4(C)C3CC[C@@]21C (some centres undefined)
# output 0.926

# input Let us now turn to CC(C)CCCC(C)C1CCC2C3CC[C@H]4CCCC[C@]4(C)C3CC[C@]12C (some centres undefined)
# output 0.994

# input Let us now turn to `COc1cc(OC)c2c3c1C(=O)c1c(OC)cc(C)c4c(OC)cc(c-3c14)C(C)(C)C2=O`
# output 1

# input Let us now turn to C[C@H](CCC(=O)O)[C@H]1CCC2C3C(CC[C@@]21C)[C@@]1(C)CC[C@@H](O)C[C@H]1C[C@@H]3O (some centres undefined)
# output 0.967

----------
# protocol: chemical genetic growth profiling, strain panel (AID 1159580);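 also: tested at 20 µM; growth read once vehicle control cultures reached saturation at 30 °C; 1 = growth at the plate median or of vehicle wells; lower values mean less growth of the strain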
# measurement parameters: S. cerevisiae deletion strains, growth OD, locus YNL067W, strain RPL9B, stronger effect = lower value
Hit rate of the full screen: of about 5,500 compounds, about 2,000 (36%) were called active. Not shown: some 18% with an inconclusive outcome. This is one part of the list.
parameter: normalized growth
Form field (numeric): enter value without unit.

# input # normalized growth lookup, item `CN1CCN(C2=Nc3ccccc3Oc3ccc(Cl)cc32)CC1`
# output 1.01

# input Let us now turn to C[C@H](CCC(=O)O)[C@H]1CCC2C3C(CC[C@@]21C)[C@@]1(C)CC[C@@H](O)C[C@H]1C[C@@H]3O (some centres undefined)
# output 0.972

# input Let us now turn to CC(CCC(=O)O)[C@H]1CCC2C3C[C@H](O)[C@@H]4C[C@H](O)CC[C@]4(C)C3CC[C@@]21C (some centres undefined)
# output 1.09

# input Let us now turn to COC(=O)CCC(C)C1CCC2C3CC[C@@H]4C[C@H](O)CC[C@]4(C)C3C[C@H](O)[C@]12C (some centres undefined)
# output 0.98

# input Let us now turn to `NC(N)=O`
# output 1.05

# input Let us now turn to CC(CCC(=O)O)[C@H]1CCC2C3CC[C@@H]4C[C@H](O)CC[C@]4(C)C3C[C@H](O)[C@@]21C (some centres undefined)
# output 1.03

# input Let us now turn to CC[C@H](CCC(C)[C@H]1CCC2C3CCC4C[C@@H](O)CC[C@]4(C)C3CC[C@@]21C)C(C)C (some centres undefined)
# output 1

# input Let us now turn to `Clc1ccc2c(c1)C(N1CCNCC1)=Nc1ccccc1O2`
# output 1.01

# input Let us now turn to COC(=O)CCC(C)[C@H]1CCC2C3C(C[C@H](O)[C@@]21C)[C@@]1(C)CC[C@@H](O)C[C@H]1C[C@H]3O (some centres undefined)
# output 1

----------
# protocol: chemical genetic growth profiling, strain panel (AID 1159580);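 also: tested at 20 µM; growth read once vehicle control cultures reached saturation at 30 °C; 1 = growth at the plate median or of vehicle wells; lower values mean less growth of the strain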
# measurement parameters: S. cerevisiae deletion strains, growth OD, locus YLR058C, strain SHM2, stronger effect = lower value
Hit rate of the full screen: of about 5,500 compounds, about 2,000 (36%) were called active. Roughly 18% stayed inconclusive and do not appear here. The list shows a part of the results.
So I've got a bunch of molecules here, and I need their normalized growth values.
Form field (numeric): enter value without unit.

# input # normalized growth lookup, item `C=C[C@H]1CN2CC[C@H]1C[C@@H]2[C@H](O)c1ccnc2ccccc12`
# output 0.992

# input Let us now turn to `c1ccc2c(c1)CN1CCCC1=N2`
# output 1

# input Let us now turn to `COc1ccc(C(=O)CC(=O)c2ccc(C(C)(C)C)cc2)cc1`
# output 1.01

# input Let us now turn to OC1=Cc2c(O)cc(O)cc2OC1(O)c1ccc(O)c(O)c1 (configuration not stated)
# output 0.984

# input Let us now turn to CC(=O)OCC(=O)[C@@]1(O)[C@H](OC(C)=O)CC2C3CCC4=CC(=O)C=C[C@]4(C)[C@@]3(F)[C@@H](O)C[C@@]21C (some centres not stated)
# output 0.98

# input Let us now turn to `CCCCSP(=O)(SCCCC)SCCCC`
# output 1.01

# input Let us now turn to CC(=O)O[C@H]1CC[C@]2(C)C3C(=O)[C@@H](OC(C)=O)[C@@]4(C)C(C[C@@H]5O[C@]6(CCC(C)CO6)[C@@H](C)[C@@H]54)C3CC[C@H]2C1 (some centres not stated)
# output 1

# input Let us now turn to `Cc1cc(O)c(C)c2c1C(=O)Oc1c(C)c(O)c(C(=O)O)c(C)c1O2`
# output 0.997

# input Let us now turn to `NC(N)=NCCC[C@@H](NC(=O)[C@@H](N)Cc1ccc(O)cc1)C(=O)O`
# output 1.01

# input Let us now turn to `O=C(Nc1ccccc1)Nc1ccccc1`
# output 0.99

# input Let us now turn to `O=C(Nc1ccccc1)c1ccccc1O`
# output 0.99

# input Let us now turn to `Cc1cc(O)c(C=O)c2c1C(=O)Oc1c(COC(=O)/C=C/C(=O)O)c(O)c(C(=O)O)c(C)c1O2`
# output 0.937

# input Let us now turn to NC(N)=NCCCC(NC(=O)C(N)Cc1ccc(O)cc1)C(=O)O (configuration not stated)
# output 0.991

# input Let us now turn to `CC(=O)Nc1ccccc1`
# output 0.972

# input Let us now turn to `COc1cc2c(cc1-c1cc3cc4ccoc4cc3oc1=O)OCO2`
# output 0.973

# input Let us now turn to `O=c1cc(-c2ccccc2)oc2cc(O)c(O)c(O)c12`
# output 0.0829

# input Let us now turn to C[C@@H]1O[C@@H](O[C@H]2C[C@@H](O)[C@]3(CO)C4C(CC[C@]3(O)C2)[C@@]2(O)CC[C@H](C3=CC(=O)OC3)[C@@]2(C)C[C@H]4O)[C@H](O)[C@H](O)[C@H]1O (some centres not stated)
# output 1.02

# input Let us now turn to `CCCC(CCC)C(=O)O`
# output 0.999

# input Let us now turn to `COc1cc(C(=O)O)c2c(c1C)OC(=O)c1c(C)cc(O)c(C=O)c1O2`
# output 1.01

# input Let us now turn to `Nc1ccncc1`
# output 1.02

# input Let us now turn to `Nc1cc(-c2ccncc2)c[nH]c1=O`
# output 0.975

# input Let us now turn to Nc1ccn(C2O[C@H](CO)[C@@H](O)[C@H]2O)c(=O)n1 (some centres not stated)
# output 0.998
